As shown below, each of these sequences has a reported folding enthalpy value.
assay: folding enthalpy; higher = less favourable; fluorescence melt of hairpins on a sequencing array, two-state fit; settings: sodium 0.088 M
readout-name: folding enthalpy (kcal/mol)

polymer_sequence="GATCGTTCCCACGATC ((((((....))))))" readout_name="folding enthalpy" units_of_measure=kcal/mol quantitative_result=-43.2
polymer_sequence="GCTCTGGGAAACCAGGGC ((.((((....)))).))" readout_name="folding enthalpy" units_of_measure=kcal/mol quantitative_result=-38
polymer_sequence="GATCAGCTTTCTGATC ((((((....))))))" readout_name="folding enthalpy" units_of_measure=kcal/mol quantitative_result=-35
polymer_sequence="GCCGTGCGAAAGCTTGGC (((..((....))..)))" readout_name="folding enthalpy" units_of_measure=kcal/mol quantitative_result=-28.5
polymer_sequence="GCCAACTCGAAAGAGGGC (((..(((....))))))" readout_name="folding enthalpy" units_of_measure=kcal/mol quantitative_result=-20.2
polymer_sequence="GGCTAGCGAAAGCTCGCC (((.(((....))).)))" readout_name="folding enthalpy" units_of_measure=kcal/mol quantitative_result=-36.3
polymer_sequence="GGTCTAGAAATAGACC ((((((....))))))" readout_name="folding enthalpy" units_of_measure=kcal/mol quantitative_result=-38.1
polymer_sequence="GTTTGTGGAAACGTAAAC ((((..(....)..))))" readout_name="folding enthalpy" units_of_measure=kcal/mol quantitative_result=-13.6
polymer_sequence="GCGTGCGGAAACGTGCGC (((..((....))..)))" readout_name="folding enthalpy" units_of_measure=kcal/mol quantitative_result=-25.6
polymer_sequence="GTGCCACGAAAGTGCCAC (((.(((....))).)))" readout_name="folding enthalpy" units_of_measure=kcal/mol quantitative_result=-20.5
polymer_sequence="GATCACACTTGTGATC ((((((....))))))" readout_name="folding enthalpy" units_of_measure=kcal/mol quantitative_result=-39.4
polymer_sequence="GCCCTGCGAAAGCCGCGC ((.(.((....)).).))" readout_name="folding enthalpy" units_of_measure=kcal/mol quantitative_result=-10.3
polymer_sequence="GGTCCCGGAAACAGGACC (((((.(....).)))))" readout_name="folding enthalpy" units_of_measure=kcal/mol quantitative_result=-28.6
polymer_sequence="GTGCCGTCGAAAGACCAC (((..(((....))))))" readout_name="folding enthalpy" units_of_measure=kcal/mol quantitative_result=-6.11
polymer_sequence="GATCAAAGATTGATC ((((((...))))))" readout_name="folding enthalpy" units_of_measure=kcal/mol quantitative_result=-27.5
polymer_sequence="GATCGTCGGACGATC ((((((...))))))" readout_name="folding enthalpy" units_of_measure=kcal/mol quantitative_result=-38.9
polymer_sequence="GTGCTGGGAAACTAGCAC (((((.(....).)))))" readout_name="folding enthalpy" units_of_measure=kcal/mol quantitative_result=-41.3
polymer_sequence="GCTTCACGAAAGTGCAGC (((.(((....))).)))" readout_name="folding enthalpy" units_of_measure=kcal/mol quantitative_result=-27.7
polymer_sequence="GTCGAGGGAAACTTCGAC (((((.(....).)))))" readout_name="folding enthalpy" units_of_measure=kcal/mol quantitative_result=-42.6
polymer_sequence="GATCCCACGGGGGATC ((((((....))))))" readout_name="folding enthalpy" units_of_measure=kcal/mol quantitative_result=-35.8
polymer_sequence="CGCGGAACACTCCGCG ((((((....))))))" readout_name="folding enthalpy" units_of_measure=kcal/mol quantitative_result=-34.8
polymer_sequence="CGTTTCGGAAACGAGACG (((.(((....))).)))" readout_name="folding enthalpy" units_of_measure=kcal/mol quantitative_result=-24.9
polymer_sequence="GATCGCACCGGCGATC ((((((....))))))" readout_name="folding enthalpy" units_of_measure=kcal/mol quantitative_result=-33.7
polymer_sequence="GATCTCGTTTGAGATC ((((((....))))))" readout_name="folding enthalpy" units_of_measure=kcal/mol quantitative_result=-32.9
polymer_sequence="CGTTAGAAATAACG (((((....)))))" readout_name="folding enthalpy" units_of_measure=kcal/mol quantitative_result=-20.5
polymer_sequence="GCCTACGAAAGTATTGGC ((((((....)))..)))" readout_name="folding enthalpy" units_of_measure=kcal/mol quantitative_result=-20.5
polymer_sequence="GTAATGGGAAACCATTAC (((((((....)))))))" readout_name="folding enthalpy" units_of_measure=kcal/mol quantitative_result=-45.5
polymer_sequence="GCAGACGAAAGTCCCTGC ((((((....)))..)))" readout_name="folding enthalpy" units_of_measure=kcal/mol quantitative_result=-14.8
polymer_sequence="GGGTTGCGAAAGCACCC (((.(((....))))))" readout_name="folding enthalpy" units_of_measure=kcal/mol quantitative_result=-23.7
polymer_sequence="GTATAAGGAAACTTATAC (((((((....)))))))" readout_name="folding enthalpy" units_of_measure=kcal/mol quantitative_result=-30.9
polymer_sequence="GATCGGTCTCCCGATC ((((((....))))))" readout_name="folding enthalpy" units_of_measure=kcal/mol quantitative_result=-41
polymer_sequence="GATGCCACGAAAGTGATC (((..(((....))))))" readout_name="folding enthalpy" units_of_measure=kcal/mol quantitative_result=-9.92
polymer_sequence="GATCATATTATGATC ((((((...))))))" readout_name="folding enthalpy" units_of_measure=kcal/mol quantitative_result=-35.9
polymer_sequence="GATCAGCGCCTGATC ((((((...))))))" readout_name="folding enthalpy" units_of_measure=kcal/mol quantitative_result=-38.9
polymer_sequence="GAAACTGAAAAGTTTC ((((((....))))))" readout_name="folding enthalpy" units_of_measure=kcal/mol quantitative_result=-31.5
polymer_sequence="GAATCCCGAAAGGGGTTC (((.(((....))).)))" readout_name="folding enthalpy" units_of_measure=kcal/mol quantitative_result=-33.9
polymer_sequence="GAACGCCGAAAGGCTTTC (((.(((....))).)))" readout_name="folding enthalpy" units_of_measure=kcal/mol quantitative_result=-17.9

----------
test: melting temperature; fluorescence melt of hairpins on a sequencing array, two-state fit, raised by 9.35 °C to match UV melts; conditions: sodium 0.088 M
Flag rule - Tm less than 50 °C flags Met; the remaining entries get Not met.

polymer_sequence="TAGGGGAAACCCTA (((((....)))))" class=Met
polymer_sequence="GAATTCGGAAACGAGTTC (((.(((....))).)))" class=Met
polymer_sequence="GTTCTCGGAAACGAGGAC ((.((((....)))).))" class="Not met"
polymer_sequence="GCGGCTGGAAACGGTCGC (((.(.(....).).)))" class="Not met"
polymer_sequence="GATCACCGGGGTGATC ((((((....))))))" class="Not met"

----------
As shown below, each of these sequences has a reported Tm value.
experiment: melting temperature; fluorescence melt of hairpins on a sequencing array, two-state fit, raised by 9.35 °C to match UV melts; conditions: sodium 0.088 M
readout-name: Tm (°C)

polymer_sequence="GGTCGACGAAAGTCAACC (((.(((....))).)))" quantitative_result=49.9
polymer_sequence="GAATGCGAAAGCATTC ((((((....))))))" quantitative_result=68.4
polymer_sequence="GATCGGGGCGCCGATC ((((((....))))))" quantitative_result=58.4
polymer_sequence="GTGGCCGAAAGGCGACAC ((((((....)))..)))" quantitative_result=57.4
polymer_sequence="CGCACTCGGAAACGAGCG (((..(((....))))))" quantitative_result=39.9
polymer_sequence="GCCTAAGGAAACTTAGGC (((((((....)))))))" quantitative_result=58.3
polymer_sequence="GGGGTAGGAAACTACCTC (.(((((....))))).)" quantitative_result=48
polymer_sequence="GCACAGAAATGTGC (((((....)))))" quantitative_result=57.2
polymer_sequence="GCCCCGCGAAAGCGCAGC ((..(((....)))..))" quantitative_result=40.3
polymer_sequence="GCACGAGGAAACTCGCGC ((.((((....)))).))" quantitative_result=54.5
polymer_sequence="GATCTGCATCAGATC ((((((...))))))" quantitative_result=47.8
polymer_sequence="GCACTGCGAAAGCATCGC ((..(((....)))..))" quantitative_result=39.5
polymer_sequence="GATCAAGGCTTTGATC ((((((....))))))" quantitative_result=50.1
polymer_sequence="GATCGGATCACCGATC ((((((....))))))" quantitative_result=57.5
polymer_sequence="GATGGAGCGAAAGCTATC (((..(((....))))))" quantitative_result=30.2
polymer_sequence="GGCAATCGAAAGATGCC (((.(((....))))))" quantitative_result=56.5
polymer_sequence="GGGGATGGAAACATTCCC (((.(((....))).)))" quantitative_result=51.6
polymer_sequence="GCCATGCGAAAGCGCGGC (((..((....))..)))" quantitative_result=59.2
